This collection of values is drawn from patent US10781177B2.

# melting point per record follows

MOLECULE | melting point
CCO/N=C(/NC(=O)C(F)(F)C(F)(F)F)c1ccc(Cc2c(C(C)C)nc(C)c(C)c2O)cc1 [7-45] | 210 to 212 °C

Which melting point value belongs to CCO/N=C(/NC(=O)C1CCC(C)CC1)c1ccc(Cc2c(C(C)C)nc(C)c(C)c2O)cc1 (stereo not shown) [7-43] ?
101 to 115 °C

Now try Cc1nc(C(C)C)c(Cc2ccc3ccc(C(F)(F)F)nc3c2)c(O)c1C [7-26] .
290 to 292 °C

# repeat for COC(=O)Oc1c(C)c(C)nc(C(C)C)c1Cc1ccc2sc3ccccc3c2c1 [7-33]
154 to 155 °C

Would you kindly repeat that for COCCC(=O)NC1CCc2cc(Cc3c(C(C)C)nc(C)c(C)c3O)ccc21 (stereo not shown) [7-34] ?
115 to 120 °C

And then Cc1nc(C(C)C)c(Cc2ccc(NC(=O)CC(C)(C)C)cc2)c(O)c1C [7-52] , what is it?
300 °C

Follow-up entry: CCO/N=C(/NC(=O)C(F)(F)C(F)(F)F)c1ccc(Cc2c(C(C)C)nc(C)c(C)c2OC(=O)OC)cc1 [7-46]
98 to 100 °C

---

As shown below, each of these compounds has a reported melting point value.

Some compounds with recorded melting point:
COMPOUND | melting point
C=CCOc1c(C)c(C)nc(C)c1CN1C(=O)c2ccccc2C1=O [7-7] | 145 to 147 °C
Cc1nc2cc(Cc3c(C(C)C)nc(C)c(C)c3O)ccc2s1 [7-13] | 284 to 286 °C

Using the record for Cc1nc(C)c(Cc2cc(-c3ccc(C(F)(F)F)cc3)on2)c(O)c1C [7-5] , report its melting point.
200 °C
